Hello, the source for this data is the supplement of paper PMC10567573, in case you need it.

For each of the sequences below, state its protein stability index.
Method Summary: protein stability index of a GFP-peptide fusion (GPS, HEK-293T) (PSI 1-6); higher = more stable;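 also: 24-mer peptide tiles fused after GFP, lentivirally expressed, FACS-sorted into six equal bins by GFP/DsRed ratio, decoded by Illumina sequencing, PSI is the read-weighted mean bin number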
Run Conditions: treatment: DMSO; c terminus: a fixed tail appended
Please give only the number in your answer, with no unit.

**Query** Consider the sequence WRKRFTEQPITDFCSVIRINSTAP [ZNF277] . State its measured protein stability index.
**Result** 2.48

**Query** Consider the sequence SDLGLLRLCTWLLALSPDLSLSNA [FANCE] . State its measured protein stability index.
**Result** 3.08

**Query** Consider the sequence TVEPGKLDVGATEGQDLQHISNQK [DRICH1] . State its measured protein stability index.
**Result** 5.43

**Query** Consider the sequence PLGTQVAVNAHQWLDNPERWNKVK [SEPHS2] . State its measured protein stability index.
**Result** 3.65

**Query** Consider the sequence GPLDIWAVVKPGNTKEKIAFFASH [FBXO34] . State its measured protein stability index.
**Result** 2.45

**Query** Consider the sequence VSERSFDNVRSLKVESGAWIGYEH [CRYBA1] . State its measured protein stability index.
**Result** 2.91

**Query** Consider the sequence QALQHVQASCDEAHKMKFSDLFSL [INTS3] . State its measured protein stability index.
**Result** 2.86

**Query** Consider the sequence EQELLRRQQRLNQLEKPPEKEEDH [FAM107A] . State its measured protein stability index.
**Result** 5.62

**Query** Consider the sequence VKLLVDLELSYGFENGQKAAVVHH [TOR1AIP2] . State its measured protein stability index.
**Result** 2.22

**Query** Consider the sequence TLQGLYLVYHPVQLSTPHAVGVLL [DHCR7] . State its measured protein stability index.
**Result** 3.18

**Query** Consider the sequence PNLSLASEDEEEYESGYAFLPDLL [SMG5] . State its measured protein stability index.
**Result** 4.32

**Query** Consider the sequence LNMEEPPVEEPEPKPDRLLVLKVL [SLC19A2] . State its measured protein stability index.
**Result** 3.5

**Query** Consider the sequence DEVPGSQGSQASQAPPVPGPPPGA [NR2F2] . State its measured protein stability index.
**Result** 5.45

**Query** Consider the sequence SRQYDKFLTHFILMNDVIDTSGFP [FBXO33] . State its measured protein stability index.
**Result** 2.51

**Query** Consider the sequence SNAERGTAEPFPRLHNLYSTPRCA [CBY2] . State its measured protein stability index.
**Result** 3.95

**Query** Consider the sequence LGALHTSSKPTALPSASSAYFPGQ [SASS6] . State its measured protein stability index.
**Result** 3.59

**Query** Consider the sequence GTSALWRHLRSAHRRELESSGAGS [ZBED3] . State its measured protein stability index.
**Result** 3.78

**Query** Consider the sequence LEEEEEEEEEAEDEEVVATAGDRL [IRX6] . State its measured protein stability index.
**Result** 5.71

**Query** Consider the sequence ILTSQPGKEVVKQLEEGLKDTDLA [M1AP] . State its measured protein stability index.
**Result** 5.05

**Query** Consider the sequence MDGQTDFWRDWEDYAHGFGNISGE [TNXB] . State its measured protein stability index.
**Result** 3.94

**Query** Consider the sequence DIKAEPQPLSPASSSYSVSSPRSV [ATF6] . State its measured protein stability index.
**Result** 4.61

**Query** Consider the sequence FLGETKQETLTNISAVNYDFDEEY [DAPK3] . State its measured protein stability index.
**Result** 4.77

**Query** Consider the sequence ESEVYSWGKGARGRLGRRDEDAGL [NEK8] . State its measured protein stability index.
**Result** 4.67

**Query** Consider the sequence SLALDIDRDAEDQNRYLDGMVRAH [BET1L] . State its measured protein stability index.
**Result** 4.24

**Query** Consider the sequence QGSRGLTDQAIFYAVTPLPWCPHL [HDAC6] . State its measured protein stability index.
**Result** 2.64

**Query** Consider the sequence ELRVLADTYDSVYLHPNSYSCACL [HDAC6] . State its measured protein stability index.
**Result** 2.03

**Query** Consider the sequence ELRRRRYEYDHWDAAIHGFRETEK [ALKBH7] . State its measured protein stability index.
**Result** 3.5

**Query** Consider the sequence SLGASPTVAGIVGSSYGILQLFSS [MFSD9] . State its measured protein stability index.
**Result** 2.08

**Query** Consider the sequence TQHFVQENYLEYRQVPGSDPACYE [MAGEA3] . State its measured protein stability index.
**Result** 4.26

**Query** Consider the sequence TLSASSSAGGSRTPAMSSSSSSRV [TFE3] . State its measured protein stability index.
**Result** 4.57

**Query** Consider the sequence LLDNPLCADVLFILQDQEHIFAHR [RHOBTB1] . State its measured protein stability index.
**Result** 2.36

**Query** Consider the sequence HFSQSLTVIHDFLFSLKESPEKFQ [FAF2] . State its measured protein stability index.
**Result** 2.06

**Query** Consider the sequence AEDAVYGRDGYDYDGYRLRVEFPR [SRSF1] . State its measured protein stability index.
**Result** 3.37

**Query** Consider the sequence DFKSCPQGPQGREGLAFLVSCPEG [PWWP2B] . State its measured protein stability index.
**Result** 3.61

**Query** Consider the sequence DCLKKFNARRKLKGAILTTMLATR [CAMK2D] . State its measured protein stability index.
**Result** 3.04

**Query** Consider the sequence MTTSHQPQDRYKAVWLIFFMLGLG [SLC29A1] . State its measured protein stability index.
**Result** 2.52

**Query** Consider the sequence TRYHLQQARRQQVKQYLSTTLGPK [TFE3] . State its measured protein stability index.
**Result** 3.21

**Query** Consider the sequence ELARIVLLRHGMDRLWRPSKVLSL [RAB40B] . State its measured protein stability index.
**Result** 2.54

**Query** Consider the sequence MCLKKNHEEEVSVLRCQLGDRLNV [KRT36] . State its measured protein stability index.
**Result** 3.24

**Query** Consider the sequence CITEDGRTVAVGDIVWGKIHGFPW [PWWP2B] . State its measured protein stability index.
**Result** 2.49

**Query** Consider the sequence GTETHGLVQVTLLDTVELATYCVR [PTPRD] . State its measured protein stability index.
**Result** 2.39

**Query** Consider the sequence AMEKFREDEGFLREEERPLPRRDF [KCNA3] . State its measured protein stability index.
**Result** 4.74

**Query** Consider the sequence ITYPPGVKEISDKISKEEMVRRLK [PDS5B] . State its measured protein stability index.
**Result** 3.49

**Query** Consider the sequence TQQWTAICPLKERRFGAVACGVAM [GAN] . State its measured protein stability index.
**Result** 2.83

**Query** Consider the sequence LCKATSPADALQYLLQFARKPVEA [INTS4] . State its measured protein stability index.
**Result** 2.05

**Query** Consider the sequence VETELQRRNEETPEEGQQPWLCGE [GDAP1] . State its measured protein stability index.
**Result** 5.38

**Query** Consider the sequence TTGIVETHFTFKDLHFKMFDVGGQ [GNAI1] . State its measured protein stability index.
**Result** 2.08

**Query** Consider the sequence ESSILGTDIDLQTIDNDIVSMEIF [M1AP] . State its measured protein stability index.
**Result** 3.86

**Query** Consider the sequence PSSLSSSEGSSSSSSSSSSSSSSA [NFE2L1] . State its measured protein stability index.
**Result** 5.51

**Query** Consider the sequence LRAFVNSQIQGHKEMSKVWNDLRP [SNX8] . State its measured protein stability index.
**Result** 2.39

**Query** Consider the sequence LGKIFDLIGLPPEDDWPRDVSLPR [CDK4] . State its measured protein stability index.
**Result** 2.34

**Query** Consider the sequence MIVDVTPYMNPSPFTVSPNTHVSQ [CLCN6] . State its measured protein stability index.
**Result** 2.47

**Query** Consider the sequence QGKLIKRQRLAKNDRGDHYHWKDL [EFHC1] . State its measured protein stability index.
**Result** 3.36
